Values were extracted from patent US11702422B2.

target: IL-17A(FLAG-Tagged): IL-17RA(His-Tagged) (Homo sapiens, UniProt Q16552, K93Q); assay: IL-17A(FLAG-Tagged): IL-17RA(His-Tagged) Binding Disruption Eu-HTRF Assay; details: IL-17A/IL-17RA binding disruption, simple average if tested more than once
Sequence (Q16552 with tags, fused parts or gaps K93Q): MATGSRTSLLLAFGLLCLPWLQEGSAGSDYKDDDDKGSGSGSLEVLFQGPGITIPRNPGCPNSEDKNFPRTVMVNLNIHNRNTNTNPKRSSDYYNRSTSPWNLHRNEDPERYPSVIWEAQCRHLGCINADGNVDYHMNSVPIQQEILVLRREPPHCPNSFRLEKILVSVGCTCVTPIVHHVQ
recorded.endpoint: IC50 (nM)

>>> value("O=C(CC1CC(F)(F)C1)N[C@@H](c1cnn2cc([C@@H](NC(=O)c3nonc3C(F)F)C3CCC(F)(F)CC3)nc2c1)C1CC1 [Example 413]")
61
>>> value("O=C(CCC(F)(F)F)N[C@@H](c1cnn2cc([C@@H](NC(=O)c3nonc3OC3CC3)C3CCC(F)(F)CC3)nc2c1)C1CC1 [Example 380]")
48
>>> value("CC(C)n1nccc1C(=O)N[C@@H](COC(C)(C)C(F)(F)F)c1cn2ncc([C@H](NC(=O)CC3CC(F)(F)C3)C3CC3)cc2n1 [Example 320]")
74
>>> value("[2H]C([2H])([2H])C([2H])([2H])n1nccc1C(=O)N[C@H](c1cn2ncc([C@H](NC(=O)C[C@@H](C)C(F)(F)F)C3CCC3)cc2n1)C1CCC(F)(F)CC1 (relative stereo) [Example 501]")
120
>>> value("CC(CC(=O)N[C@@H](c1cnn2cc([C@@H](NC(=O)c3ccnn3C(C)C)C3CCC(F)(F)CC3)nc2c1)C1CC1)C(F)F (some centres unmarked) [Example 262]")
120
>>> value("O=C(CCC(F)(F)F)N[C@@H](c1cnn2cc([C@@H](NC(=O)c3cnnn3CC3CC(F)(F)C3(F)F)C3CCC(F)(F)CC3)nc2c1)C1CC1 (some centres unmarked) [Example 94]")
110
>>> value("CC(C)(OC[C@H](NC(=O)c1nonc1C1CC1)c1cn2ncc([C@H](NC(=O)CC3CC(F)(F)C3)C3CCOCC3)cc2n1)C(F)(F)F [Example 540]")
14
>>> value("O=C(CCC(F)(F)F)NC(c1cnn2cc([C@@H](NC(=O)c3cnn(CCC(F)(F)F)c3)C3CCC(F)(F)CC3)nc2c1)C1CC1 (single isomer, unassigned) [Example 7]")
4900
>>> value("Cc1nonc1C(=O)N[C@H](c1cn2ncc(C(NC(=O)CCC(F)(F)F)C(C)C)cc2n1)C1CCC(F)(F)CC1 (single isomer, unassigned) [Example 504]")
46
>>> value("O=C(CCC(F)(F)F)N[C@@H](c1cnn2cc([C@@H](NC(=O)c3ccc(F)cc3)C3CCC(F)(F)CC3)nc2c1)C1CC1 [Example 182]")
85
>>> value("CC(C)n1nccc1C(=O)N[C@H](c1cn2ncc(C(NC(=O)CC3CC(F)(F)C3)C3CCOCC3)cc2n1)C1CCC(F)(F)CC1 (single isomer, unassigned) [Example 535]")
440
